Data provenance: paper PMC5078989

System: panel of cancer cell lines
Assay: Cell viability (CellTiter-Glo) dose-response across cancer cell line panel;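 further: after 72 h compound incubation with CellTiter-Glo ATP readout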
Assay type: cell-based, human
Settings: Homo sapiens, MDA-MB-415, MDA-MB-415 cells
pEC50: −log10 of the molar value.
Observable: pEC50

Line notation: COCc1ccccc1NCc1ccc([C@@H]2[C@H](O)CCCc3cncn32)c(-c2ccccc2Cl)c1
Experimental value: 4.87

###

Tested on: panel of cancer cell lines
Assay: Cell viability (CellTiter-Glo) dose-response across cancer cell line panel;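 further: after 72 h compound incubation with CellTiter-Glo ATP readout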
Type: cell-based, human
Conditions: Homo sapiens, SK-CO-1, SK-CO-1 cells
pEC50: −log10 of the molar value.

Line notation: COCc1ccccc1NCc1ccc([C@@H]2[C@H](O)CCCc3cncn32)c(-c2ccccc2Cl)c1
pEC50: 4.97

###

Tested on: panel of cancer cell lines
Assay: Cell viability (CellTiter-Glo) dose-response across cancer cell line panel;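 further: after 72 h compound incubation with CellTiter-Glo ATP readout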
Type: cell-based, human
Details: Homo sapiens, HRT-18, HRT-18 cells
Observable: EC50

Molecule: COCc1ccccc1NCc1ccc([C@@H]2[C@H](O)CCCc3cncn32)c(-c2ccccc2Cl)c1 [CSN5i-2e]
Experimental value: 9.14 µM

###

Test system: panel of cancer cell lines
Test: Cell viability (CellTiter-Glo) dose-response across cancer cell line panel;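 further: after 72 h compound incubation with CellTiter-Glo ATP readout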
Assay type: cell-based, human
Conditions: Homo sapiens, MFE-280, MFE-280
Observable: EC50 (nM)

Line notation: NS(=O)(=O)OC[C@@H]1C[C@@H](n2ccc3c(N[C@H]4CCc5ccccc54)ncnc32)C[C@@H]1O
Experimental value: 364
//
Line notation: COCc1ccccc1NCc1ccc([C@H]2[C@@H](O)CCCc3cncn32)c(-c2ccccc2Cl)c1
Experimental value: 5450

###

Tested on: panel of cancer cell lines
Assay: Cell viability (CellTiter-Glo) dose-response across cancer cell line panel;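 further: after 72 h compound incubation with CellTiter-Glo ATP readout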
Format: cell-based, human
Conditions: Homo sapiens, JJN-3, JJN-3
pEC50: −log10 of the molar value.
Observable: pEC50

Compound: CC(C)C[C@H](NC(=O)[C@H](Cc1ccccc1)NC(=O)c1cnccn1)B(O)O [Bortezomib]
Experimental value: 8.58

###

Test system: panel of cancer cell lines
Test: Cell viability (CellTiter-Glo) dose-response across cancer cell line panel;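 further: after 72 h compound incubation with CellTiter-Glo ATP readout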
Assay type: cell-based, human
Conditions: Homo sapiens, P12-Ichikawa, P12-ICHIKAWA cells

Line notation: COCc1ccccc1NCc1ccc([C@@H]2[C@H](O)CCCc3cncn32)c(-c2ccccc2Cl)c1
EC50 (µM): 7.02

###

Test system: panel of cancer cell lines
Assay: Cell viability (CellTiter-Glo) dose-response across cancer cell line panel;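 further: after 72 h compound incubation with CellTiter-Glo ATP readout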
Assay type: cell-based, human
Conditions: Homo sapiens, P3HR-1, P3HR-1 cells
Description: Next, we explored the effect of CSN5 inhibition on the viability of cancer cells. […] A standardized CellTiter-Glo Assay (Promega #G7570) based on the quantification of ATP was applied according to the manufacturer's protocol to measure the amount of viable cells in culture. […] EC50 values were calculated from the plot of percentage of inhibition versus inhibitor concentration using the nonlinear regression analysis software Origin 7.5SR6 (OriginLab Corp.).
Observable: EC50 (µM)

Line notation: COCc1ccccc1NCc1ccc([C@@H]2[C@H](O)CCCc3cncn32)c(-c2ccccc2Cl)c1
Observable: EC50
Experimental value: 7.82

###

Test system: panel of cancer cell lines
Test: Cell viability (CellTiter-Glo) dose-response across cancer cell line panel;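 further: after 72 h compound incubation with CellTiter-Glo ATP readout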
Assay type: cell-based, human
Settings: Homo sapiens, MM415
pEC50: −log10 of the molar value.
Attribute: pEC50
Observable: pEC50

Line notation: NS(=O)(=O)OC[C@@H]1C[C@@H](n2ccc3c(N[C@H]4CCc5ccccc54)ncnc32)C[C@@H]1O
Observable: pEC50
Experimental value: 6.17
--
Line notation: COCc1ccccc1NCc1ccc([C@H]2[C@@H](O)CCCc3cncn32)c(-c2ccccc2Cl)c1
Observable: pEC50
Experimental value: 5.86
